# test-target: FGF14:Nav1.6 complex (Homo sapiens, UniProt Q92915)
# Sequence (Q92915 1-252 isoform Q92915-2): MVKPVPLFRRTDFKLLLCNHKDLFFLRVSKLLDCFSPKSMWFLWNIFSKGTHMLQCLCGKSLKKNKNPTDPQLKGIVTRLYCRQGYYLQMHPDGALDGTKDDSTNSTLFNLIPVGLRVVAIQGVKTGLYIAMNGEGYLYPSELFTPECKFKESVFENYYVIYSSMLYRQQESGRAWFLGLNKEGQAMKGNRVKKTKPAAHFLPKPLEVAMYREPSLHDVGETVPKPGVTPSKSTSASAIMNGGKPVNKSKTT
# test-details: Split-luciferase complementation assay
# Assay type: cell-based
# protocol-conditions: HEK293, 1 h, read-out: RLVs (%)
Residues, ends and D or L forms follow the SMILES beside them. *: point of attachment. Benzoyl(4-F) = O=C(c1ccc(F)cc1)*; Cbz = O=C(OCc1ccccc1)*; OtBu = CC(C)(C)O*
Here the recorded activity at 50 µM is given for each entry.

Enquiry: Give its activity at 50 µM value. Item: COC(=O)CC[C@H](NC(=O)[C@H](CC(C)C)NC(=O)[C@@H]1CCCN1C(=O)OCc1ccccc1)C(=O)OC(C)(C)C [Compound 30] (Cbz-Pro-Leu-Glu(OMe)-OtBu)
Return: > 100%

---
Enquiry: Give its activity at 50 µM value. Item: COC(=O)[C@@H](NC(=O)[C@H](CC(C)C)NC(=O)[C@@H]1CCCN1C(=O)OCc1ccccc1)C(C)C [Compound 32] (Cbz-Pro-Leu-Val-OMe)
Return: > 100%

Enquiry: Give its activity at 50 µM value. Item: CC(C)C[C@H](NC(=O)[C@@H]1CCCN1C(=O)OCc1ccccc1)C(=O)N[C@H](C(N)=O)C(C)C [Compound 31] (Cbz-Pro-Leu-Val-NH2)
Return: > 100%

Enquiry: Give its activity at 50 µM value. Item: CC(C)C[C@H](NC(=O)[C@@H]1CCCN1C(=O)c1ccc(F)cc1)C(=O)N[C@@H](CCC(=O)OC(C)(C)C)C(=O)N[C@H](C(N)=O)C(C)C [Compound 13f] ({Benzoyl(4-F)}-PLE(OtBu)V-NH2)
Return: 123%

Data origin: paper PMC8317200
